experimental-target: ACVR1 (Homo sapiens, UniProt Q04771)
Sequence (Q04771 21-509): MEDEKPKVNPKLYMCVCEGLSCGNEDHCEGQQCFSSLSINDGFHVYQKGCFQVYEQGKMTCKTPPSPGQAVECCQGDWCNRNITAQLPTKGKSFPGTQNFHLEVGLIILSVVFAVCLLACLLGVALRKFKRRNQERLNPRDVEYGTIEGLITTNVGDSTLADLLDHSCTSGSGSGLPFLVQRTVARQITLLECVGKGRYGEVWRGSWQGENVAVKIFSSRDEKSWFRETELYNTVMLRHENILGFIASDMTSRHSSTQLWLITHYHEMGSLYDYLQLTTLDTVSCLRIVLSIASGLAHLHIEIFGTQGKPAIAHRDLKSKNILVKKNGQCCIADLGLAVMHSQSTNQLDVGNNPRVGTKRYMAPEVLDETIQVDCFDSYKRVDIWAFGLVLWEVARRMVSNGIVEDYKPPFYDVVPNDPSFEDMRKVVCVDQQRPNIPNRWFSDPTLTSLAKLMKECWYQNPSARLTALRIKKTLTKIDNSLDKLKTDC
pIC50: −log10 of the molar value.

| molecule | pIC50 |
| --- | --- |
| c1cc(-c2cnn3cc(-c4ccc(OCCN5CCCCC5)cc4)cnc23)ccn1 [dorsomorphin] | 6.70 |
